Provide the recorded pIC50 for the entries that follow.
Biological target: HLA-B*5401 (human)
Experiment: inhibition of 125I probe peptide, purified HLA
One number for each entry, as −log10 of the molar value.

Look over these answered cases.
FPHRWCIPI [CEA.7.F1I9] = 8.72
FPSAPPHRI [CEA.3.F1I9] = 7.85
FPWQRLLL [CEA.13.F1, 8 AA] = 7.15
FPQQHTQVLF [CEA.632.F1, 10 AA] = 6.25
FPWQRLLLTI [CEA.13.F1I10] = 8.38

Provide the reported pIC50 of each entry below, same order.
1. FPGLSAGATI [CEA.680.F1, 10 AA]
2. FPNNNGTI [CEA.646.F1]
3. FPQHLFGI [CEA.58.F1, 8 AA]

Output:
[6.98, 6.50, 9.40]

The measurements presented in this section are drawn from patent US20040146519A1.
